Below, each of the molecules is paired with its reported pIC50 value.
System: HCV replicon
protocol-description: HCV replicon luciferase reporter assay
Assay type: cell-based
experimental-setup: Hepatitis C virus, Table 5; read-out: IC50
pIC50: −log10 of the molar value.

Solved cases (3 shown):
COc1cccc(NCCCNc2nsc3ccccc23)n1 ... > 5.30
COc1ccc(-c2ccc(C(=O)NCCCNc3nsc4c(S(=O)(=O)C(C)(C)C)cccc34)cc2)cc1 ... > 5.30
O=C(NCCNc1nsc2ccccc12)c1cc(F)cc(C(F)(F)F)c1 ... > 5.30

Query: Give the measured pIC50 of COC(=O)c1ccccc1S(=O)(=O)NCCCNc1nsc2ccccc12 .
Reply: > 5.30

Query: Give the measured pIC50 of c1ccc(CNCCCNc2nsc3ccccc23)nc1 .
Reply: < 5.30

Query: Give the measured pIC50 of COc1ccc(-c2ccc(C(=O)NCCCNc3nsc4cccc(S(=O)(=O)NC(C)(C)C)c34)cc2)cc1 .
Reply: < 5.30

Query: Give the measured pIC50 of COC(=O)c1cnc(NCCCNc2nsc3ccccc23)nc1C(F)(F)F .
Reply: > 5.30

Query: Give the measured pIC50 of O=S(=O)(NCCCNc1nsc2ccccc12)c1ccc(Br)cc1C(F)(F)F .
Reply: > 5.30

Query: Give the measured pIC50 of O=S(=O)(NCCCNc1nsc2ccccc12)c1cccc2cccnc12 .
Reply: > 5.30

----------
Tested on: HCV replicon
protocol-description: HCV replicon luciferase reporter assay
Type: cell-based
experimental-setup: Hepatitis C virus, Table 5; read-out: IC50
parameter: IC50

O=S(=O)(NCCCNc1nsc2ccccc12)c1ccc(F)c(F)c1F [Compound 250] ... < 5 µM
COc1ccc(-c2ccc(CN(C)CCCNc3nsc4ccccc34)cc2)cc1 [Compound 490] ... < 5 µM
O=C(NCCCNc1nsc2ccccc12)c1cc2ccc([N+](=O)[O-])cc2s1 [Compound 433] ... < 5 µM

Query: Give the measured IC50 of CCCCc1ccc(NC(=O)NCCCNc2nsc3ccccc23)cc1 [Compound 379] .
Reply: < 5 µM

----------
System: HCV replicon
protocol-description: HCV replicon luciferase reporter assay
Assay type: cell-based
experimental-setup: Hepatitis C virus, Table 5; read-out: IC50
parameter: IC50

Solved cases (4 shown):
O=S(=O)(NCCCNc1nsc2ccccc12)c1c(F)cc(F)cc1Br [Compound 253] ... < 5 µM
COc1ccc(-c2cccc(C(=O)NCCNc3nsc4ccccc34)c2)cc1 [Compound 371] ... < 5 µM
COc1ccc2oc(C(=O)NCCCNc3nsc4ccccc34)cc2c1 [Compound 437] ... < 5 µM
O=C(NCCCNc1nsc2ccccc12)c1cccc(-c2ccc(Cl)nc2)c1 [Compound 380] ... < 5 µM

Could you now consider this next compound?
Query: Lab note: need IC50 with HCV replicon for entry O=C(NCCCNc1nsc2ccccc12)c1cc2cc(Cl)ccc2o1 [Compound 436] , please look it up.
Reply: < 5 µM

----------
Tested on: HCV replicon
protocol-description: HCV replicon luciferase reporter assay
Type: cell-based
experimental-setup: Hepatitis C virus, Table 5; read-out: IC50
Below, each of the compounds is paired with its reported IC50 value.

O=C(NCCNc1nsc2ccccc12)c1cc(C(F)(F)F)ccc1C(F)(F)F [Compound 357] ... < 5 µM
O=C(NCCCNc1nsc2ccccc12)c1cccc(Br)n1 [Compound 419] ... < 5 µM
O=C1CCCN1c1ccc(CNCCCNc2nsc3ccccc23)cc1 [Compound 346] ... > 5 µM
O=C(NCCNc1nsc2ccccc12)c1ccc(F)cc1F [Compound 349] ... < 5 µM
O=S(=O)(c1ccc(CNCCCNc2nsc3ccccc23)cc1)N1CCOCC1 [Compound 259] ... > 5 µM

Query: Give the measured IC50 of O=C(NCCNc1nsc2ccccc12)c1ccc(C(F)(F)F)c(F)c1 [Compound 355] .
Reply: < 5 µM

Query: Give the measured IC50 of CCCc1ccc(C(=O)NCCCNc2nsc3ccccc23)cc1 [Compound 273] .
Reply: < 5 µM

Query: Give the measured IC50 of COc1cc(F)ccc1-c1ccc(NC(=O)NCCCNc2nsc3ccccc23)cc1 [Compound 393] .
Reply: < 5 µM

Query: Give the measured IC50 of COC(=O)c1ccc(S(=O)(=O)N(CCCNc2nsc3ccccc23)Cc2ccc(-c3ccc(OC)cc3)cc2)n1C [Compound 317] .
Reply: < 5 µM

Query: Give the measured IC50 of c1ccc(CN2CCCC(NCCCNc3nsc4ccccc34)C2)cc1 (stereo not shown) [Compound 306] .
Reply: < 5 µM

Every entry's value here was drawn from patent US7776847B2.
